measurement.notes: Identification of proteins required for the processing of the EWS-FLI1 nascent transcript;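 also: robust z of luciferase light less the median z of siRNAs with the same seed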
applied.conditions: TC32 Ewing sarcoma NR0B1-luc vs CMV-luc (EWS-FLI1 target promoter against control promoter), 48 h; screened at 20 nM (by protocol)
Whole data set: some 59,000 sequences, median the read-out near -0.00055, cut for the lowest 2% near -2. The entries come from a sample that favours the lowest values as a whole.
Mark yes (1) only for seed-corrected z-score values smaller than 0.3; exact matches and larger values are no (0).

A selection of reference data follows.
[[record]]
biopolymer_sequence = "UAUCCCAAUACAAAGUACU against RCE1"
class = "yes (1)"

[[record]]
biopolymer_sequence = "UGACGUGUCAUUCUCAUAC against ZNF69"
class = "yes (1)"

[[record]]
biopolymer_sequence = "UCUGAUUCCGCUUCUGAGC against SIGLEC10"
class = "no (0)"

[[record]]
biopolymer_sequence = "UUUCUGACCACGUCUAGCA against PEX11B"
class = "no (0)"

[[record]]
biopolymer_sequence = "UUUCCCAUCCUUAAAGAGC against PTGS1"
class = "yes (1)"

[[record]]
biopolymer_sequence = "UUCUUGUACUGCACCAUCU against PHLDA1"
class = "no (0)"


In: Consider the sequence UCGUUUACAAACAUGAGUC against MPDZ . Is its seed-corrected z-score strictly less than 0.3?
Out: no (0)

In: Consider the sequence UAAGCAACAGGAGCUCAGU against KRT6B . Is its seed-corrected z-score strictly less than 0.3?
Out: no (0)

In: Consider the sequence UGAACUCCUUCAAUCCUGC against AHSP . Is its seed-corrected z-score strictly less than 0.3?
Out: no (0)

In: Consider the sequence UUAGUACAGAUGCAGUUCU against OR56A5 . Is its seed-corrected z-score strictly less than 0.3?
Out: yes (1)

In: Consider the sequence UAGCCUAUCAAUGAAACCU against ZNF222 . Is its seed-corrected z-score strictly less than 0.3?
Out: no (0)

In: Consider the sequence AUCUAUCUGACCCAAAUCC against HNRNPH1 . Is its seed-corrected z-score strictly less than 0.3?
Out: yes (1)
